- Test system: B6C3F1 mice, colon carcinoma 38 s.c., T/C
- assayOverview: NCI In Vivo Anticancer Drug Screen. Data for tumor model Colon Carcinoma 38 (subcutaneous) in B6C3F1 mice
- experimentalContext: endpoint: median tumor weight (est.); dose: 4.0 mg/kg/injection; schedule: Q07DX002 (ip); vehicle: saline; higher = larger tumour
Results filed as inconclusive are left out.
testReadout: T/C

Assign T/C to the following record: CSCS(=O)C[C@H](CO)NC(=O)/C=C/c1c(C)[nH]c(=O)[nH]c1=O (stereo partly specified)
66 % of control

Assign T/C to the following record: Cc1c(N)nc([C@H](CC(N)=O)NC[C@H](N)C(N)=O)nc1C(=O)N[C@H](C(=O)N[C@H](C)[C@@H](O)CC(=O)N[C@H](C(=O)NC(O[C@@H]1O[C@@H](C)[C@@H](N)[C@@H](O)[C@H]1O)C(O)c1nc(-c2nc(C(=O)NCCCCN)cs2)cs1)[C@@H](C)O)[C@@H](O[C@@H]1O[C@@H](CO)[C@@H](O)[C@H](O)[C@@H]1O[C@H]1O[C@H](CO)[C@@H](O)[C@H](OC(N)=O)[C@@H]1O)c1c[nH]cn1 (stereo partly specified)
54 % of control

Assign T/C to the following record: Cc1c(N)nc(C(CC(N)=O)NCC(N)C(N)=O)nc1C(=O)NC(C(=O)NC(C)C(O)CC(=O)NC(C(=O)NC(OC1OC(C)C(N)C(O)C1O)C(O)c1nc(-c2nc(C(=O)NCCCC(N)CC(=O)NCCCNCCCCN)cs2)cs1)C(C)O)C(OC1OC(CO)C(O)C(O)C1OC1OC(CO)C(O)C(OC(N)=O)C1O)c1cnc[nH]1 (stereo unspecified)
36 % of control

Assign T/C to the following record: OC(C1CO1)C(O)C1CO1 (stereo unspecified)
107 % of control

Assign T/C to the following record: Nc1ncn(C2OC(CO)C(O)C2O)c(=O)n1 (stereo unspecified)
60 % of control

Assign T/C to the following record: COC(=O)C[C@](O)(CCC(C)(C)O)C(=O)O[C@@H]1C(OC)=C[C@]23CCCN2CCc2cc4c(cc2[C@H]13)OCO4
14 % of control
